Below: a set of entries, each annotated with reported pIC50.
- System: MOLM14 cells
- test.summary: Proliferation assay, spheroid-like growth, MOLM14 (MLL-AF9 rearranged)
- Format: cell-based, human
- conditions: Homo sapiens, MOLM-14, 192 h, 8 days, confluence as measure of spheroid size, read-out: spheroid assay_OneTime MOLM14 IC50
Give only the number. pIC50 is defined as minus log10 of concentration in molar units.

(Q) Query for MOLM14 cells: what pIC50 does the record show for CC(C)[C@H]([C@H]1C[C@@H](NC2CC2)C1)N1CC2(CCN(c3ncnnc3Oc3ccc(F)cc3-c3ncccc3C3CC3)C2)C1 (single isomer, unassigned) [Compound 148] ?
(A) 8.52

(Q) Query for MOLM14 cells: what pIC50 does the record show for CNC(=O)c1coc(N[C@H]2C[C@@H](C(C)N3CC4(CCN(c5ncnnc5Oc5ccc(F)cc5-c5cncnc5C5CC5)C4)C3)C2)n1 (single isomer, unassigned) [Compound 461] ?
(A) 7.20
